Data provenance: paper PMC7819943

Item-by-item account of binding signal
biological target: OsWRKY34 (Oryza sativa, UniProt Q0JBA9 1-250); experiment: protein-binding microarray (RPBM); PBS, 2% BSA, 51.3 ng/ul salmon testes DNA, 50 uM zinc acetate, 200 nM TF, 25 C, 1 h; high values mean tight binding; conditions: protein: recombinant; tags: N-terminal polyhistidine and DsRed monomer fusion (pET32a); label: CyDye5-dUTP incorporated in the synthesized complementary strand; 3' TTTTT single-stranded linker to array surface; dsDNA, one strand shown
Sequence (Q0JBA9 entry or part of it): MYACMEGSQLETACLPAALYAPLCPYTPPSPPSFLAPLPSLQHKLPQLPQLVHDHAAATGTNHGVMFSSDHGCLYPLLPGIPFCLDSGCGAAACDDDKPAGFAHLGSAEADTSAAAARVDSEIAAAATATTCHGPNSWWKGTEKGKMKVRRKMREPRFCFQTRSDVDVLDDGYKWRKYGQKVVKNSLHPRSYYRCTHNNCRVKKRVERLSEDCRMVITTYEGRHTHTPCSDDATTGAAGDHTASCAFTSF
Whole data set: some 68,000 sequences, median “fluorescence intensity (a.u.)” near 9,100, cut for the highest 2% near 16,000. This is one part of a sample in which the highest values are shown more often than they occur.

sequence	value measured
TATTAGTGGTATATATCCCTATCAGTCATTCTGCTTGCTTCGGAGTCACCTAGTGCAG	9260 fluorescence intensity (a.u.)
TCAACTGTACTGTACTCCACTCGCCGCACACACTGACACACGGAGTCACCTAGTGCAG	11200 fluorescence intensity (a.u.)
TAGATAACGTCATTGACTTTTTCTCACATATTTGACCATTCGGAGTCACCTAGTGCAG	12400 fluorescence intensity (a.u.)
TGTTTGACATCGTTGACTTTTTAACACATGTTTCACTGTTCGGAGTCACCTAGTGCAG	36000 fluorescence intensity (a.u.)

Lookup: Query: binding signal; subject: TCCCAGCAAATGCAACGCTCGTACTCCTCGCATCAACAGCCGGAGTCACCTAGTGCAG
Found: 8210 fluorescence intensity (a.u.)

Lookup: Another: GCCTATCCACAACATCGTCGCAGGCCTTCTTTTTCCCTCGCGGAGTCACCTAGTGCAG
Found: 8320 fluorescence intensity (a.u.)

Lookup: Another: GTGTTTTTTCTTCATTTGTCCCGTAATAAATTTATTTTTTCGGAGTCACCTAGTGCAG
Found: 12500 fluorescence intensity (a.u.)

Lookup: Another: GTCTCGTGGCACCTCAATTTATTAATCACTACCCCTATACCGGAGTCACCTAGTGCAG
Found: 8710 fluorescence intensity (a.u.)

Lookup: Another: GCTCTTTGGCCTGCTTCAGCCTTCAGCTTCTCCATGGTTTCGGAGTCACCTAGTGCAG
Found: 10700 fluorescence intensity (a.u.)

Lookup: Another: CGTGTGGTTGATTGTGTGTGCGAGCCGAATGCTGCCTACTCGGAGTCACCTAGTGCAG
Found: 9260 fluorescence intensity (a.u.)

###

molecular target: OsWRKY34 (Oryza sativa, UniProt Q0JBA9 1-250); experiment: protein-binding microarray (RPBM); PBS, 2% BSA, 51.3 ng/ul salmon testes DNA, 50 uM zinc acetate, 200 nM TF, 25 C, 1 h; high values mean tight binding; details: protein: recombinant; tags: N-terminal polyhistidine and DsRed monomer fusion (pET32a); label: CyDye5-dUTP incorporated in the synthesized complementary strand; 3' TTTTT single-stranded linker to array surface; dsDNA, one strand shown
In all, about 68,000 sequences were measured (“fluorescence intensity (a.u.)”: median about 9,100, highest 2% from about 16,000 on). This is one part of a sample in which the highest values are shown more often than they occur.
Item-by-item account of binding signal

Example entries and their recorded answers appear below.
sequence	binding signal
TGTTGTTTTGGTCTACAGTTGTCTTTTGAGTTGTTGTATTCGGAGTCACCTAGTGCAG	12200 fluorescence intensity (a.u.)
TATAGGTCCCACGCTATCTCAGTCGCCACATCAGCTAAAACGGAGTCACCTAGTGCAG	8690 fluorescence intensity (a.u.)
AATGTGGTGGTGGTGGTGGTGAACGGAGGAGGGAGGGAGCCGGAGTCACCTAGTGCAG	13000 fluorescence intensity (a.u.)

Lookup: Requested read-out binding signal, target or system OsWRKY34 (Oryza sativa, UniProt Q0JBA9 1-250), entry TCATTATGGTGTTTCTTAATTGCTTTTTTCTTTTTATTATCGGAGTCACCTAGTGCAG
Found: 8300 fluorescence intensity (a.u.)
